Data credit: patent US20230303690A1

Entries and their OD450 at 10 ug/ml
Molecular target: T1, human LAG3 expressed on cells (human, UniProt P18627 23-525)
T1 construct: whole, on cells
T1 sequence (looked up): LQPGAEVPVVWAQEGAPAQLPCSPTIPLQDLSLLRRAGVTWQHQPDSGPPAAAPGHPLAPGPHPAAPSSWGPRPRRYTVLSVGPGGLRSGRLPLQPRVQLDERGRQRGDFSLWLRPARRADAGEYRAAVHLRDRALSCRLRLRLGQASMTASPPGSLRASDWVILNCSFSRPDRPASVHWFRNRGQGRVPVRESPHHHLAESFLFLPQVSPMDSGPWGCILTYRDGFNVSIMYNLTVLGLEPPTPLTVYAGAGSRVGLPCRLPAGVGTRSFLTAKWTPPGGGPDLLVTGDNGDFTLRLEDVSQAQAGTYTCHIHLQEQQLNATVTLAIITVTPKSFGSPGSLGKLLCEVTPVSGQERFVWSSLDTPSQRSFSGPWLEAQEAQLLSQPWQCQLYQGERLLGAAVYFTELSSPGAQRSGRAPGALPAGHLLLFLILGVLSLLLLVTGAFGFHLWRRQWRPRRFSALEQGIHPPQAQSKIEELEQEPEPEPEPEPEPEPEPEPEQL
Test: cell ELISA, 293T-hLAG3 cells
Respond using a number only.

Example entries begin here.
| Binder | OD450 at 10 ug/ml |
| --- | --- |
| sdAb No. 27 (VHH, Fc of the tested form not described; also called sdAb 27; not shown: Fc part implied by anti-human Fc capture and anti-human IgG Fc detection) VHH: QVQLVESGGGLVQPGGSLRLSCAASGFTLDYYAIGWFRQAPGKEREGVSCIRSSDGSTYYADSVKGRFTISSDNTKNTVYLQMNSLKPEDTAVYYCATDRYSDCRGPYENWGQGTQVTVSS | 1.26 |
| sdAb No. 17-H2 (VHH, Modified sdAb No. 17 (CDR1 DG to EG); not shown: Fc part implied by anti-human IgG1 Fc detection) VHH: QLQLVESGGGLVQPGGSLRLSCAASGLTLEGYAIGWFRQAPGKEREGLACISGSDGSTHYLDSVKGRFTISRDNGKNTMALQMNSLQFGDTAIYYCAARRGSCSGSWTYWGQGTQVTVSS | 1.4 |
| sdAb No. 27-H1 (VHH, Modified sdAb No. 27 (CDR2 DG to DA); not shown: Fc part implied by anti-human IgG1 Fc detection) VHH: QVQLVESGGGLVQPGGSLRLSCAASGFTLDYYAIGWFRQAPGKEREGVSCIRSSDASTYYADSVKGRFTISSDNTKNTVYLQMNSLKPEDTAVYYCATDRYSDCRGPYENWGQGTQVTVSS | 1.33 |

Now for a further binder.
Could you tell me which OD450 at 10 ug/ml is on file for sdAb No. 17-H3 (VHH, Modified sdAb No. 17 (CDR2 DG to DA); not shown: Fc part implied by anti-human IgG1 Fc detection) VHH: QLQLVESGGGLVQPGGSLRLSCAASGLTLDGYAIGWFRQAPGKEREGLACISGSDASTHYLDSVKGRFTISRDNGKNTMALQMNSLQFGDTAIYYCAARRGSCSGSWTYWGQGTQVTVSS ?
1.28
